STUDY TARGET: Human M4 (Homo sapiens)
METHOD NOTES: mAChR M4 cell-based functional assay (calcium flux, human M4/Gqi5/CHO cells)
EXPERIMENTAL CONTEXT: antagonist mode, decrease of the response to an EC80 concentration of acetylcholine; CHO-K1 cells with Gqi5
PARAMETER MEASURED: IC50 (µM)

* Cc1cnn(C)c1-c1ccc(N2CC[C@H]3CN(CC45CC6CC(CC(C6)C4)C5)C[C@H]32)nn1 [Compound 23] | 0.102

[A] Cc1cnn(C)c1-c1ccc(N2CCC3CN(CC4CCN(Cc5ccccc5)CC4)CC32)nn1 (centres unmarked) [Compound 8]
[B] Cc1cnn(C)c1-c1ccc(N2CCC3CN(CCc4ccccc4)CC32)nn1 (centres unmarked) [Compound 6]
[C] Cc1cnn(C)c1-c1ccc(N2CCC3CN(CC(c4ccccc4)c4ccccc4)CC32)nn1 (centres unmarked) [Compound 14]
Falling order of IC50, please. Write the labels out in the order the request specifies.
C, A, B
(C: 9.19 µM, A: 3.38 µM, B: 1.98 µM)

----------
STUDY TARGET: Human M4 (Homo sapiens)
Construct: expressed in transfected cells; host or cells: CHO-K1 (ATCC), co-transfected with chimeric G protein Gqi5
METHOD NOTES: mAChR M4 cell-based functional assay (calcium flux, human M4/Gqi5/CHO cells)
EXPERIMENTAL CONTEXT: CHO; % ACh maximum at 30 μM; read-out: Emin (%) human M4
PARAMETER MEASURED: remaining activity at 30 µM (%)

Example entries begin here.
- Cc1cnn(C)c1-c1ccc(N2CCC3CN(CCCc4ccccc4)CC32)nn1 (stereo not shown): 6.12
- Cc1nn(C)c(C)c1-c1ccc(N2CCC3CN(CC45CC6CC(CC(C6)C4)C5)CC32)nn1 (stereo not shown): 3.18
- Cc1cnn(C)c1-c1ccc(N2CCC3CN(CCC(C)c4ccccc4)CC32)nn1 (stereo not shown): 4.33
- CCCCCCN1CC2CCN(c3ccc(-c4c(C)cnn4C)nn3)C2C1 (stereo not shown): 7.23

[I] Cc1cccnc1CN1CC2CCN(c3ccc(-c4c(C)cnn4C)nn3)C2C1 (stereo not shown)
[II] Cc1nn(C)cc1-c1ccc(N2CCC3CN(CC45CC6CC(CC(C6)C4)C5)CC32)nn1 (stereo not shown)
Short answer wanted: higher remaining activity at 30 µM, I or II ? In your reply, give the label of the chosen option.
I
(I: 26.2%, II: 4.02%)

[A] Cc1cnn(C)c1-c1ccc(N2CCC3CN(CC4CC5C=CC4C5)CC32)nn1 (stereo not shown)
[B] Fc1ccc(-c2ccc(N3CCC4CN(CC56CC7CC(CC(C7)C5)C6)CC43)nn2)c(Cl)c1 (stereo not shown)
From the recorded data, which exceeds the other in remaining activity at 30 µM: A or B ? To answer, give the label that identifies your chosen option.
B
(B: 12%, A: 4.28%)

----------
STUDY TARGET: Human M4 (Homo sapiens, UniProt P08173)
Sequence (P08173 whole entry): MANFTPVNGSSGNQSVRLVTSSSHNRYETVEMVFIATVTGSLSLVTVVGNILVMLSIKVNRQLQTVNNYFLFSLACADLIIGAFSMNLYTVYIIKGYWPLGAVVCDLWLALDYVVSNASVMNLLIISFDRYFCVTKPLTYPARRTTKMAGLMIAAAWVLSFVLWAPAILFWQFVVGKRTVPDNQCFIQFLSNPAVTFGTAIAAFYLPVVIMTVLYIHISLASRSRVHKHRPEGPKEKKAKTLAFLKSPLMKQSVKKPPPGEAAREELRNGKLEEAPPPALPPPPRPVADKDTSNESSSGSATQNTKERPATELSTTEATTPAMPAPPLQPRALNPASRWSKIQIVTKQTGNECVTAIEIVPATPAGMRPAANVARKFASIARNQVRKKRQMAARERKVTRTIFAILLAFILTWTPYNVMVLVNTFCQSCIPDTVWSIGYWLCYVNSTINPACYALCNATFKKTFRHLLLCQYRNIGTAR
METHOD NOTES: mAChR M4 cell-based functional assay (calcium flux, human M4/Gqi5/CHO cells)
EXPERIMENTAL CONTEXT: antagonist mode, decrease of the response to an EC80 concentration of acetylcholine; CHO-K1 cells with Gqi5
pIC50: −log10 of the molar value.
PARAMETER MEASURED: pIC50

* Cc1nn(C)cc1-c1ccc(N2CCC3CN(CC45CC6CC(CC(C6)C4)C5)CC32)nn1 (stereo not drawn) | 6.72
* Cc1nn(C)c(C)c1-c1ccc(N2CCC3CN(CC45CC6CC(CC(C6)C4)C5)CC32)nn1 (stereo not drawn) | 6.89
* Cc1cnn(C)c1-c1ccc(N2CC[C@@H]3CN(CC45CC6CC(CC(C6)C4)C5)C[C@@H]32)nn1 | 6.83

----------
STUDY TARGET: Rat M4 (Rattus norvegicus, UniProt P08485)
Construct: expressed in transfected cells; host or cells: CHO-K1 (ATCC), co-transfected with chimeric G protein Gqi5
METHOD NOTES: mAChR M4 cell-based functional assay (calcium flux, rat M4/Gqi5/CHO cells)
EXPERIMENTAL CONTEXT: CHO; % ACh maximum at 30 μM; read-out: Emin (%) rat M4
PARAMETER MEASURED: remaining activity at 30 µM (%)

Record excerpt, results attached:
• CC/C=C\CCCN1CC2CCN(c3ccc(-c4c(C)cnn4C)nn3)C2C1 (stereo not drawn) = 45.2
• Cc1cnn(C)c1-c1ccc(N2CCC3CN(CCc4ccccc4)CC32)nn1 (stereo not drawn) = 30.9
• CCCCCCN1CC2CCN(c3ccc(-c4c(C)cnn4C)nn3)C2C1 (stereo not drawn) = 28.4

[1] CCc1ccncc1-c1ccc(N2CCC3CN(CC45CC6CC(CC(C6)C4)C5)CC32)nn1 (stereo not drawn)
[2] Cc1cnn(C)c1-c1ccc(N2CCC3CN(CC(C)c4ccccc4)CC32)nn1 (stereo not drawn)
Higher remaining activity at 30 µM: 1 or 2 ? # answer = label of selected item
2
(2: 55.5%, 1: 3.98%)

[I] Cc1cnn(C)c1-c1ccc(N2CC[C@@H]3CN(CC45CC6CC(CC(C6)C4)C5)C[C@@H]32)nn1
[II] Cc1cnn(C)c1-c1ccc(N2CCC3CN(CC4CCOCC4)CC32)nn1 (stereo not drawn)
Compare I and II and name the one whose reported remaining activity at 30 µM is smaller. Please identify the chosen entry by its label.
I
(I: 3.71%, II: 69.7%)

[I] Cc1cnn(C)c1-c1ccc(N2CCC3CN(CCCc4ccccc4)CC32)nn1 (stereo not drawn)
[II] Cc1cnn(C)c1-c1ccc(N2CCC3CN(CC4CC5C=CC4C5)CC32)nn1 (stereo not drawn)
Task for the reader: decide whether I or II has the larger remaining activity at 30 µM. Use the label to indicate which entry you chose.
I

[I] Fc1ccc(Cl)c(-c2ccc(N3CCC4CN(CC56CC7CC(CC(C7)C5)C6)CC43)nn2)c1 (stereo not drawn)
[II] Cc1cnn(C)c1-c1ccc(N2CCC3CN(CC45CC6CC(CC(C6)C4)C5)CC32)nn1 (stereo not drawn)
[III] Cc1cnn(C)c1-c1ccc(N2CCC3CN(CC4CCN(Cc5ccccc5)CC4)CC32)nn1 (stereo not drawn)
Reorder: remaining activity at 30 µM, max to min. As an answer, provide the labels arranged in the order called for.
I, III, II
(I: 49.1%, III: 32.4%, II: 4.61%)

[1] Cc1cnn(C)c1-c1ccc(N2CCC3CN(CC(c4ccccc4)c4ccccc4)CC32)nn1 (stereo not drawn)
[2] Cc1cnn(C)c1-c1ccc(N2CCC3CN(CCC(C)c4ccccc4)CC32)nn1 (stereo not drawn)
[3] Cc1cnn(C)c1-c1ccc(N2CCC3CN(CCC(C)(C)C)CC32)nn1 (stereo not drawn)
Order the records so the highest remaining activity at 30 µM appears first and the lowest last. Please write the labels in the order that was asked for.
1, 3, 2

[a] Fc1ccc(-c2ccc(N3CCC4CN(CC56CC7CC(CC(C7)C5)C6)CC43)nn2)c(Cl)c1 (stereo not drawn)
[b] Cc1cccnc1CN1CC2CCN(c3ccc(-c4c(C)cnn4C)nn3)C2C1 (stereo not drawn)
Thinking about recorded remaining activity at 30 µM values, which is higher, a or b ? Write the label of whichever entry you select.
b
(b: 63.1%, a: 36.4%)

----------
STUDY TARGET: Rat M4 (Rattus norvegicus, UniProt P08485)
Construct: expressed in transfected cells; host or cells: CHO-K1 (ATCC), co-transfected with chimeric G protein Gqi5
Sequence (P08485 1-478): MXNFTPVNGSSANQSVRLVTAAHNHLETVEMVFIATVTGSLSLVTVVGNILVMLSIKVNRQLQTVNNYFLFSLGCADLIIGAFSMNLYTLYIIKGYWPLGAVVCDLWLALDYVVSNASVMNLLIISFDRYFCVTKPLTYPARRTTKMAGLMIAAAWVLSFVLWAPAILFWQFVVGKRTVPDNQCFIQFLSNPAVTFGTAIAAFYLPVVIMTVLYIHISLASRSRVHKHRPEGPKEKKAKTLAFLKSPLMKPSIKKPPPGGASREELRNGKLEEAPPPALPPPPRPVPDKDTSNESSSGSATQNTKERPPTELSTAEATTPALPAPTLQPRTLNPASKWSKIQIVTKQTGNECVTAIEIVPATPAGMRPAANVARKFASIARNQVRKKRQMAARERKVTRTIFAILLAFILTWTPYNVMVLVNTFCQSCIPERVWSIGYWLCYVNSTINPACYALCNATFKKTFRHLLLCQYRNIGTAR
METHOD NOTES: mAChR M4 cell-based functional assay (calcium flux, rat M4/Gqi5/CHO cells)
EXPERIMENTAL CONTEXT: CHO; % ACh maximum at 30 μM; read-out: Emin (%) rat M4
PARAMETER MEASURED: remaining activity at 30 µM (%)

* Cc1cnn(C)c1-c1ccc(N2CC[C@H]3CN(CC45CC6CC(CC(C6)C4)C5)C[C@H]32)nn1 | 4.52
* Cc1nn(C)c(C)c1-c1ccc(N2CCC3CN(CC45CC6CC(CC(C6)C4)C5)CC32)nn1 (stereo not shown) | 4.41

[P] Cc1cnn(C)c1-c1ccc(N2CCC3CN(CCCC(C)(C)C)CC32)nn1 (stereo not shown)
[Q] Cc1nn(C)cc1-c1ccc(N2CCC3CN(CC45CC6CC(CC(C6)C4)C5)CC32)nn1 (stereo not shown)
I'm curious whether P or Q has the smaller remaining activity at 30 µM number. Which is it? Respond using the label that marks the chosen record.
Q
(Q: 4.09%, P: 6.85%)

The values you see were collected from patent US11225484B2.
